# assayProtocol: A549 cell viability effects, profiling panel, calcein-AM fluorescence, 48 h, basal (AID 1162); further: test concentration not given here
# experimentalParameters: higher = more signal
Use -0.5 as the dividing line for z-score, with the line itself on the class 1 side and lower values as class 0.

Decide: is the reported value of z-score for O=C1C[C@@](C(=O)NCCN2CCOCC2)(c2ccc([N+](=O)[O-])cc2)[C@@H](c2ccc(CO)cc2I)N1CC12CC3CC(CC(C3)C1)C2 equal to or greater than -0.5?
class 0

Decide: is the reported value of z-score for C=C(CCCC)C(=O)CC[C@@H](OC(=O)c1ccccc1-c1ccccc1C(=O)O)c1ccc(OCCO)cc1 equal to or greater than -0.5?
class 1

Decide: is the reported value of z-score for C=C(COC)C(=O)CC[C@@H](OC(C)=O)c1ccc(CO)o1 equal to or greater than -0.5?
class 0

----------
# assayedTarget: Carbonic anhydrase 2 (Homo sapiens)
# assayProtocol: CAII small-molecule binders, profiling panel, biochemical, small-molecule microarray, Alexa647-labelled CAII (AID 1122)
# experimentalParameters: CAII-A647 binding fluorescence, higher = more signal
Use 0.3 as the dividing line for composite z-score, with the line itself on the YES side and lower values as NO.

Decide: is the reported value of composite z-score for C=CCC(OC(C)=O)[C@@H]1[C@@H](N(Cc2cccc3ccccc23)C(=O)c2ccc(-c3ccccc3)cc2)c2cc(OCCCO)ccc2N1C(=O)c1ccc2ccccc2c1 (some centres undefined) equal to or greater than 0.3?
NO

Decide: is the reported value of composite z-score for Cc1ccc(S[C@]2(C(=O)NCCCN(C)C)CC(=O)N(Cc3ccccc3C(F)(F)F)[C@@H]2c2ccc(CO)cc2)cc1 equal to or greater than 0.3?
NO

Decide: is the reported value of composite z-score for CCOC(=O)C[C@H]1[C@H](OC(=O)c2ccc(C(=O)c3ccccc3)cc2)[C@@H](NC(=O)c2ccccc2)c2cc(OCCCO)ccc2N1C(=O)Cc1ccc(OC)cc1 equal to or greater than 0.3?
NO

Decide: is the reported value of composite z-score for COc1ccc(CCNC(=O)[C@@]2(Sc3ccc(C)cc3)CC(=O)N(C3Cc4ccccc4C3)[C@@H]2c2ccc(CO)cc2I)cc1 equal to or greater than 0.3?
YES

Decide: is the reported value of composite z-score for CCOC(=O)C[C@H]1[C@H](OC(=O)c2ccc(-c3ccccc3)cc2)[C@@H](NC(=O)Cc2ccc(OC)cc2)c2cc(OCCCO)ccc2N1C(=O)c1ccccc1 equal to or greater than 0.3?
NO

----------
# assayProtocol: P. aeruginosa biofilm formation inhibitors, primary screen, strain PAO1, LB-PBS medium, absorbance 600 nm (AID 1176); further: test concentration not given here
# experimentalParameters: P. aeruginosa PAO1 growth/biofilm, A600, 12 h; higher = more signal
The source made the active and inactive calls. The rule behind the calls is not given here.
resultType: z-score

Below, each entry is followed by its recorded z-score result.
>>> result("CCCC[C@H]1OB(O)C[C@H]2C1=C(COC)C[C@H]1C(=O)N(C)C(=O)[C@H]12")
"0.118 (inactive)"
>>> result("CN(C)CCCCCCNC(=O)[C@H]1C[C@H]2C(=O)N[C@@H](CCCCN)C(=O)N2[C@H]1c1cccc(OCCO)c1")
"0.0346 (inactive)"
>>> result("CCC[C@@H]1C[C@@]1(CCC)[C@@H](NS(=O)(=O)c1cccc2cccnc12)c1ccc(Cl)cc1")
"0.908 (inactive)"
>>> result("O=C1N[C@@H](Cc2ccccc2)C(=O)N2[C@@H]1C[C@@H](C(=O)O)[C@H]2c1cccc(OCCO)c1")
"0.0499 (inactive)"
>>> result("O=C(NCCN1CCOCC1)[C@@H]1c2ccccc2C(=O)N(C2CCCCC2)[C@H]1c1ccc(CO)cc1")
"-0.177 (inactive)"
>>> result("COC(=O)[C@@]1(Cc2ccc(OC)cc2)[C@H]2c3cc(C(=O)N4CCCC4)n(Cc4ccc(O)c(OC)c4)c3C[C@H]2CN1C(=O)c1ccccc1")
"0.591 (inactive)"
>>> result("C=C(CCCC)/C(=C/C[C@@H](OC(=O)c1ccncc1)c1ccc(OCCO)cc1)c1cc(C(=O)OC)ccc1OC")
"-0.39 (inactive)"

Turning now to a further compound:
Reported z-score, compound COC(=O)[C@@]1(Cc2ccc(OC)cc2)[C@H]2c3cc(C(=O)N(C)C)n(Cc4ccccn4)c3C[C@H]2CN1C(=O)c1ccccc1 : ____
0.976 (inactive)
